Entry source: the supplement of paper PMC7224384

Quick reference: drug sensitivity score of the listed items.
# Tested on: MDA-MB-453
# Protocol Description: drug sensitivity score (DSS), in combination with BLU9931 (DSS (weighted AUC score)); higher = more sensitive (stronger viability decrease); extreme values may be limits of the assay
# Experimental Context: BLU9931 100 nM; 72 h

Here are 3 compounds together with their reported answers.
>>> print(df.to_string())
                                   compound      target  val
0  Cc1ccc(NC(=O)c2ccc(CN3CCN(C)CC3)cc2)cc1Nc1nccc(-c2cccnc2)n1 [Imatinib]  MDA-MB-453  0.1
1  CN1CCN(c2nc(C3=C(c4c[nH]c5ccccc45)C(=O)NC3=O)c3ccccc3n2)CC1 [Sotrastaurin]  MDA-MB-453    1
2  NC[C@@](O)(c1ccc(Cl)cc1)c1ccc(-c2cn[nH]c2)cc1  MDA-MB-453  2.4

Please report the recorded drug sensitivity score for Nc1nc2[nH]cnc2c(=S)[nH]1 [Thioguanine] .
5.9

Entry CN[C@@H]1C[C@H]2O[C@@](C)([C@@H]1OC)n1c3ccccc3c3c4c(c5c6ccccc6n2c5c31)C(=O)N[C@H]4O [UCN-01] : reported drug sensitivity score = ?
16

Need drug sensitivity score, item S=C(NCc1ccc2c(c1)OCO2)N1CCN(c2ncnc3c2oc2ccccc23)CC1 [Amuvatinib]
0.3

Which value of drug sensitivity score has been reported for Cc1cccc(CC(=O)N2CCc3c2ccc(-c2cn(C)c4ncnc(N)c24)c3F)n1 in the records?
0

Quick check: drug sensitivity score of CC[C@@](C)(Nc1ccnc(-c2c[nH]c3ncccc23)n1)C(=O)NCC(F)(F)F [Decernotinib] ?
0

// returns reported drug sensitivity score for input Cc1cnc(Nc2ccc(OCCN3CCCC3)cc2)nc1Nc1cccc(S(=O)(=O)NC(C)(C)C)c1 [Fedratinib]
6.3
